ASSAY_SYSTEM: acetylcholinesterase (Homo sapiens, UniProt P22303)
Sequence (P22303 32-614): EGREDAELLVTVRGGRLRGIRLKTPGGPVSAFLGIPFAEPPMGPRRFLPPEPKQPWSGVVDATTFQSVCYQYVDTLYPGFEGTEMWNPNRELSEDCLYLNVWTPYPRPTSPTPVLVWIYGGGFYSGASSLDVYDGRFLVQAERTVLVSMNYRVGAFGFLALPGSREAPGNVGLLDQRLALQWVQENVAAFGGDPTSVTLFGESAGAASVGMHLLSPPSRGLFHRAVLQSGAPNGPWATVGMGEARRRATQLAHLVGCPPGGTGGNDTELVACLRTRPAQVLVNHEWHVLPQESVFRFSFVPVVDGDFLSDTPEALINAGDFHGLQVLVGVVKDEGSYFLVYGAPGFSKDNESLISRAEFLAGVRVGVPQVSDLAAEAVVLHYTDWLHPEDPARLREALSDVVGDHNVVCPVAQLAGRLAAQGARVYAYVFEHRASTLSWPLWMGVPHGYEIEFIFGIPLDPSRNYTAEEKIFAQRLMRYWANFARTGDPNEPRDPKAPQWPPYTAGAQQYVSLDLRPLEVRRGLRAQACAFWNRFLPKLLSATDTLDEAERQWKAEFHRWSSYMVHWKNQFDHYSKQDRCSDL
pIC50: −log10 of the molar value.
pIC50 values by entry

{"COMPOUND": "c1ccc2c(c1)NC1CCCc3onc-2c31 (centres unmarked)", "pIC50": 4.89}
{"COMPOUND": "c1ccc2c(c1)nc1c3c(onc32)CCC1", "pIC50": 5.41}

###

Analgesic PQW % Inhibition of Writhing at 20 mg/kg., S.C. values by entry
Tested on: 2-phenyl-1,4-benzoquinone-induced writhing in mice
MEASUREMENT_PROTOCOL: 2-phenyl-1,4-benzoquinone-induced writhing test in mice (analgesia)
Type: in vivo
SETTINGS: 20 mg/kg
QUANTITY_NAME: Analgesic PQW % Inhibition of Writhing at 20 mg/kg., S.C.

{"COMPOUND": "CCNC(=O)N1c2ccccc2-c2noc3c2C1CCC3 (stereo not shown)", "RESULT": "44%"}
{"COMPOUND": "C#CCNC(=O)N1c2ccccc2-c2noc3c2C1CCC3 (stereo not shown)", "RESULT": "29%"}
{"COMPOUND": "O=C(NCC#CCN1CCCC1)N1c2ccccc2-c2noc3c2C1CCC3 (stereo not shown)", "RESULT": "33%"}
{"COMPOUND": "O=C(NCCN1CCOCC1)N1c2ccccc2-c2noc3c2C1CCC3 (stereo not shown)", "RESULT": "52%"}
